# subject.of.test: Human RNR (human M1 subunit and human M2 subunit) (Homo sapiens (Human))
# Sequence (P23921 whole entry): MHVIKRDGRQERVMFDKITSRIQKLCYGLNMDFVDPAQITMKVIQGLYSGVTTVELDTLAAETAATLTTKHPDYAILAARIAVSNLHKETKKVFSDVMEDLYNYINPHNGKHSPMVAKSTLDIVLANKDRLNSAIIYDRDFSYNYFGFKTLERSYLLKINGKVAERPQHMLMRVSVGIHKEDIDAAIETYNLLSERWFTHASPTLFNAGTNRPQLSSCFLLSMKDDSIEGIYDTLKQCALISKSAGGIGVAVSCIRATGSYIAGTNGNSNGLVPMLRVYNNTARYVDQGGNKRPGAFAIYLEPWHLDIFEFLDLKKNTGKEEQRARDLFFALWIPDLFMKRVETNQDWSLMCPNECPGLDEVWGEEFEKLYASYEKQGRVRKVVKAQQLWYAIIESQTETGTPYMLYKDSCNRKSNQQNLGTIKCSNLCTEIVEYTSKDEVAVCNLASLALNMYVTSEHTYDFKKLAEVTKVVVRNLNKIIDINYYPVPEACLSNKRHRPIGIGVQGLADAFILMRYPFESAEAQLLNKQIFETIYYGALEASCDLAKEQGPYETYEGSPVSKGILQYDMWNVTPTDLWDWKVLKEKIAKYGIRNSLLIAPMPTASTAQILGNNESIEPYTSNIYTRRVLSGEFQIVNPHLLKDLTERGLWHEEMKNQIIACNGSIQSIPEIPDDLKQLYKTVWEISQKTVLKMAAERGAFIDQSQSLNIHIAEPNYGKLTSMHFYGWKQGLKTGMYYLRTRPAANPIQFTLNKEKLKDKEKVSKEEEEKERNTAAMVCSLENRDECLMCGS
# experiment.summary: Human RNR inhibition effect (formation of dCDP from CDP, HPLC)
# Type: biochemical
# conditions: human M1 and M2 proteins, 10 μM CDP, 37° C. for 30 minutes; read-out: RNR Enzyme inhibitory activity IC50
measured.attribute: IC50 (nM)

INSERT INTO measurements (molecule, measured_attribute, experimental_result) VALUES
  ('Cc1c(Cl)ccc(F)c1[C@@H](C)[C@H](NS(=O)(=O)c1ccc(F)c2c1OCCC2(C)O)c1n[nH]c(=O)o1 (single isomer, unassigned) [Example 229B]', 'IC50', 110),
  ('COc1c(S(=O)(=O)N[C@H](c2n[nH]c(=O)o2)[C@H](C)c2c(F)ccc(C)c2C)ccc(Cl)c1C(C)O (single isomer, unassigned) [Example 208B]', 'IC50', 60),
  ('Cc1c(Br)ccc(F)c1[C@@H](C)[C@H](NS(=O)(=O)c1ccc(Cl)c2c1OCCC2(C)O)c1n[nH]c(=O)o1 (single isomer, unassigned) [Example 222B]', 'IC50', 60),
  ('Cc1ccc(F)c([C@@H](C)[C@H](NS(=O)(=O)c2ccc(Cl)c3c2OCCC3O)c2n[nH]c(=O)o2)c1C (single isomer, unassigned) [Example 235A]', 'IC50', 80),
  ('Cc1ccc(F)c([C@@H](C)[C@H](NS(=O)(=O)c2ccc(Cl)c3c2OCCC3(O)C(F)(F)F)c2n[nH]c(=O)o2)c1C (single isomer, unassigned) [Example 220B]', 'IC50', 80),
  ('Cc1c(Br)ccc(F)c1[C@@H](C)[C@H](NS(=O)(=O)c1ccc(Cl)c2c1OCCC2O)c1n[nH]c(=O)o1 (single isomer, unassigned) [Example 243B]', 'IC50', 100),
  ('Cc1ccc(F)c([C@@H](C)[C@H](NS(=O)(=O)c2ccc(Cl)c3c2OCCC3(O)C(F)(F)F)c2n[nH]c(=O)o2)c1C (single isomer, unassigned) [Example 220A]', 'IC50', 60),
  ('Cc1ccc(F)c([C@@H](C)[C@H](NS(=O)(=O)c2ccc(F)c3c2OCCC3(C)O)c2n[nH]c(=O)o2)c1C (single isomer, unassigned) [Example 224B]', 'IC50', 100);

1. Cc1c(Cl)ccc(F)c1[C@@H](C)[C@H](NS(=O)(=O)c1ccc(Cl)c2c1OCCC2(C)O)c1n[nH]c(=O)o1 (single isomer, unassigned) [Example 209B]
2. [2H]C([2H])([2H])C1(O)CCOc2c(S(=O)(=O)N[C@H](c3n[nH]c(=O)o3)[C@H](C)c3c(F)ccc(Br)c3C)ccc(Cl)c21 (single isomer, unassigned) [Example 226B]
Q: Select one: 1 or 2 . Criterion: greater recorded IC50. Indicate your choice by writing its label.
Result: 1
(1: 180 nM, 2: 70 nM)

A. Cc1ccc(F)c([C@@H](C)[C@H](NS(=O)(=O)c2ccc(Cl)c3c2OCCC3(C)O)c2n[nH]c(=O)o2)c1C (single isomer, unassigned) [Example 207A]
B. Cc1c(Br)ccc(F)c1[C@@H](C)[C@H](NS(=O)(=O)c1ccc(Cl)c2c1OCCC2(C)O)c1n[nH]c(=O)o1 (single isomer, unassigned) [Example 222A]
Q: Select one: A or B . Criterion: greater recorded IC50. Indicate your choice by writing its label.
Result: A
(A: 130 nM, B: 80 nM)

Cited source: patent US11634395B2
